- Test system: intestinal microbiota (fecal samples) of human subjects
- method: in-vitro fermentations of fecal samples (intestinal microbiota-representing microarray) with phytonutrient precursor compounds; also: key: conversion (+); partial conversion (±); no conversion (−)
- Format: in vitro ADME
- experimental setup: fecal sample of Subject 9 (S9), in-vitro fermentation
experimental readout: Phytonutrient Producer Status: conversion of the phytonutrient precursor compound, S9

Please review the following examples before continuing.
Query string: Reported Phytonutrient Producer Status: conversion of the phytonutrient precursor compound, S9 for Oc1cc(O)c2c(c1)O[C@H](c1cc(O)c(O)c(O)c1)[C@H](O)C2 [Epigallocatechol] : what is it?
Result string: +

Query string: Same lookup for `O=c1oc2c(O)c(O)cc3c(=O)oc4c(O)c(O)cc1c4c23` , please.
Result string: −

Query string: Likewise for `COc1ccc([C@@H]2CC(=O)c3c(O)cc(O[C@@H]4O[C@H](CO[C@@H]5O[C@@H](C)[C@H](O)[C@@H](O)[C@H]5O)[C@@H](O)[C@H](O)[C@H]4O)cc3O2)cc1O` ?
Result string: +

Query string: Then this molecule: `O=c1c(O)c(-c2ccc(O)c(O)c2)oc2cc(O)cc(O)c12`
Result string: −

Query string: Would you mind doing COc1cc(C[C@@H](CO[C@@H]2O[C@H](CO)[C@@H](O)[C@H](O)[C@H]2O)[C@H](CO[C@@H]2O[C@H](CO)[C@@H](O)[C@H](O)[C@H]2O)Cc2ccc(O)c(OC)c2)ccc1O [Secoisolariciresinol diglucoside] as well?
Result string: +

Next molecule, Phytonutrient Producer Status: conversion of the phytonutrient precursor compound, S9 to be filled in.
Query string: Phytonutrient Producer Status: conversion of the phytonutrient precursor compound, S9 lookup needed for OC[C@H]1O[C@@H](Oc2cc3c(O)cc(O)cc3[o+]c2-c2ccc(O)c(O)c2)[C@H](O)[C@@H](O)[C@@H]1O [Cyanidin-3-glucoside] , thanks.
Result string: +

* * *

- Tested on: intestinal microbiota (fecal samples) of human subjects
- method: in-vitro fermentations of fecal samples (intestinal microbiota-representing microarray) with phytonutrient precursor compounds; also: key: conversion (+); partial conversion (±); no conversion (−)
- Type: in vitro ADME
- experimental setup: fecal sample of Subject 1 (S1), in-vitro fermentation
experimental readout: Phytonutrient Producer Status: conversion of the phytonutrient precursor compound, S1

Sample records with Phytonutrient Producer Status: conversion of the phytonutrient precursor compound, S1:
Query string: Sample Oc1cc(O)c2c(c1)O[C@H](c1cc(O)c(O)c(O)c1)[C@H](O)C2 [Epigallocatechol] — what was its Phytonutrient Producer Status: conversion of the phytonutrient precursor compound, S1?
Result string: +

Query string: Again, but for COc1cc(C[C@@H](CO[C@@H]2O[C@H](CO)[C@@H](O)[C@H](O)[C@H]2O)[C@H](CO[C@@H]2O[C@H](CO)[C@@H](O)[C@H](O)[C@H]2O)Cc2ccc(O)c(OC)c2)ccc1O [Secoisolariciresinol diglucoside]
Result string: +

Query string: Same question, OC[C@H]1O[C@@H](Oc2cc3c(O)cc(O)cc3[o+]c2-c2ccc(O)c(O)c2)[C@H](O)[C@@H](O)[C@@H]1O [Cyanidin-3-glucoside] this time
Result string: ±

Query string: Now consider `O=c1oc2c(O)c(O)cc3c(=O)oc4c(O)c(O)cc1c4c23` and answer again.
Result string: ±

Query string: Entry to check: `O=c1c(O)c(-c2ccc(O)c(O)c2)oc2cc(O)cc(O)c12`
Result string: −

Okay, next one:
Query string: // returns reported Phytonutrient Producer Status: conversion of the phytonutrient precursor compound, S1 for input `COc1ccc([C@@H]2CC(=O)c3c(O)cc(O[C@@H]4O[C@H](CO[C@@H]5O[C@@H](C)[C@H](O)[C@@H](O)[C@H]5O)[C@@H](O)[C@H](O)[C@H]4O)cc3O2)cc1O`
Result string: +

Sourced from patent US11730778B2
